meta.source: PubChem BioAssay AID1919013

System: LG0703-F498-PDC complex spheroid growth
Assay: Anticancer human tumor LG0703-F498-PDC patient-derived lung adenocarcinoma cell line growth inhibition [AhR]
Details: second compound 0.316 µM; first compound 0.00949 µM; stronger effect = lower value
ASSAY READOUT: viability, T/C (%)
Provide the reading as a plain figure in %.

Examples with their reported viability, T/C follow.
CCN(c1cc(-c2ccc(CN3CCOCC3)cc2)cc(C(=O)NCc2c(C)cc(C)[nH]c2=O)c1C)C1CCOCC1 + Cc1cncc(-c2nc(NCCc3c[nH]c4ccccc34)c3ncn(C(C)C)c3n2)c1 : 118
O=C(C=Cn1cnc(-c2cc(C(F)(F)F)cc(C(F)(F)F)c2)n1)NNc1cnccn1 + Cc1cncc(-c2nc(NCCc3c[nH]c4ccccc34)c3ncn(C(C)C)c3n2)c1 : 82.4

Turning now to a further molecule:
Task: Param item = Nc1ncn(C2CC(O)C(CO)S2)c(=O)n1 (stereo not drawn) + CC(CO)NC(=O)c1cc(-c2ccc(Cl)cc2)nn(-c2cnn(C)c2)c1=O ; retrieve measured viability, T/C.
Result: 96.2

---

Tested on: LG0703-F498-PDC complex spheroid growth
Assay: Anticancer human tumor LG0703-F498-PDC cell line growth inhibition [AhR];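 also: luminescence taken as a proxy for viable cell amount; percent of DMSO vehicle control where 100% means growth equal to vehicle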
Settings: second compound 0.1 µM; first compound 0.01 µM; stronger effect = lower value
ASSAY READOUT: viability, T/C (%)
Provide the reading as a plain figure in %.

Examples with their reported viability, T/C follow.
Cn1ncnc1C1c2n[nH]c(=O)c3cc(F)cc(c23)NC1c1ccc(F)cc1 (stereo not drawn) + Cc1ccccc1N=Nc1ccc(NC(=O)c2ccnn2C)c(C)c1 : 95.2
Cn1ncnc1C1c2n[nH]c(=O)c3cc(F)cc(c23)NC1c1ccc(F)cc1 (stereo not drawn) + Cc1cncc(-c2nc(NCCc3c[nH]c4ccccc34)c3ncn(C(C)C)c3n2)c1 : 93.8

Turning now to a further compound:
Task: For the record Cn1ncnc1C1c2n[nH]c(=O)c3cc(F)cc(c23)NC1c1ccc(F)cc1 (stereo not drawn) + CC(CO)NC(=O)c1cc(-c2ccc(Cl)cc2)nn(-c2cnn(C)c2)c1=O , what value of viability, T/C is listed for LG0703-F498-PDC complex spheroid growth?
Result: 79.5

---

viability, T/C for assorted compounds
Test system: LG0703-F498-PDC complex spheroid growth
Experiment: Anticancer human tumor LG0703-F498-PDC cell line growth inhibition [AhR];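 also: luminescence taken as a proxy for viable cell amount; percent of DMSO vehicle control where 100% means growth equal to vehicle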
Details: second compound 10 µM; first compound 0.00316 µM; stronger effect = lower value
Provide the reading as a plain figure in %.

Examples with their reported viability, T/C follow.
CC1COCCN1c1cc(-c2ccnn2C)c2ccnc(-c3ccn[nH]3)c2n1 (stereo unspecified) + Cc1ccccc1N=Nc1ccc(NC(=O)c2ccnn2C)c(C)c1 : 86.6
CC1COCCN1c1cc(-c2ccnn2C)c2ccnc(-c3ccn[nH]3)c2n1 (stereo unspecified) + CC(CO)NC(=O)c1cc(-c2ccc(Cl)cc2)nn(-c2cnn(C)c2)c1=O : 101
CC[C@@]1(O)C(=O)OCc2c1cc1n(c2=O)Cc2cc3c(CN(C)C)c(O)ccc3nc2-1 + Cc1ccccc1N=Nc1ccc(NC(=O)c2ccnn2C)c(C)c1 : 78.7
Cn1ncnc1C1c2n[nH]c(=O)c3cc(F)cc(c23)NC1c1ccc(F)cc1 (stereo unspecified) + Cc1cncc(-c2nc(NCCc3c[nH]c4ccccc34)c3ncn(C(C)C)c3n2)c1 : 1.11
CC[C@@]1(O)C(=O)OCc2c1cc1n(c2=O)Cc2cc3c(CN(C)C)c(O)ccc3nc2-1 + Cc1cncc(-c2nc(NCCc3c[nH]c4ccccc34)c3ncn(C(C)C)c3n2)c1 : 1.13

Task: Param item = Nc1ncn(C2CC(O)C(CO)O2)c(=O)n1 (stereo unspecified) + Cc1cncc(-c2nc(NCCc3c[nH]c4ccccc34)c3ncn(C(C)C)c3n2)c1 ; retrieve measured viability, T/C.
Result: 1.37
